Test system: SK-MEL-5 melanoma
assay.overview: NCI tumour cell line growth inhibition, 48 h; in the data active = GI50 below about 0.43 µM; inactive = the rest
Your response should consist of one outcome taken from active, inactive

In: Hi, do you know how Cc1cc(C2CC(O)C(CO)O2)c(Cl)cc1Cl (configuration not stated) came out in this test?
Out: inactive

In: Field: outcome | Entry: `O=C(N/N=C/c1c(Cl)cccc1Cl)c1cccnc1Nc1cccc(C(F)(F)F)c1`
Out: inactive

In: What classification did `O=S(=O)(Nc1ccc(Cl)cc1)c1ccc(-c2cnc(C3CC3)o2)cc1` end up with in this test?
Out: inactive

In: State the result this test recorded for `Cc1nc2c(o1)C(=O)c1ccccc1C2=Nc1ccccc1` .
Out: inactive

In: Test call, this molecule: `CC(=N\O)/C(C)=N/O.CC(=N\O)/C(C)=N/O.CC(=N\O)/C(C)=N/O.CC(=N\O)/C(C)=N/O.[CH3-].[CH3-].[Co].[Co]`
Out: inactive

In: Outcome? `C[n+]1c2ccccc2c(Nc2ccc(N3CCCCC3)cc2)c2[nH]c3ccccc3c21`
Out: active

In: Dear colleague, could you share the recorded outcome for `C(=C1c2ccccc2-c2ccccc21)c1ccncc1` when you have a moment?
Out: inactive

* * *

System: RXF 393 renal
assay.overview: NCI tumour cell line growth inhibition, 48 h; in the data active = GI50 below about 0.43 µM; inactive = the rest
Log the outcome using a class from true (1) (active), false (0) (inactive)

In: Give the logged outcome of this assay for the following compound: `OCc1ccc(N(Cc2ccc(F)cc2)CC2CC2)cc1Cl`
Out: false (0)

In: Hi, do you know how `CCCN(CCC)c1ccc(CO)c(Cl)c1` came out in this test?
Out: false (0)

In: // return assay outcome for `O=Cc1cn(Cc2ccc(Cl)cc2)c2ccccc12`
Out: false (0)

In: Short answer needed: outcome of this test for `O=c1ccc2nc(C(F)(F)F)nn(-c3ccccc3)c-2c1` ?
Out: false (0)

In: Name the outcome recorded for CC(=O)OC1CC2C(C)(C)C(=O)C=C[C@]2(C)C2CC[C@]3(C)C(OCC(=O)[C@H]3c3ccoc3)[C@]12C (some centres not stated) in the assay.
Out: false (0)

In: So what was the verdict on `CN(C)CCCn1c2c(c3ccc(-c4ccn[nH]4)cc3c1=O)C(=O)c1ccccc1-2` in this test?
Out: false (0)

In: For this compound, state the assay outcome: `CC(C)C[C@H](NC(=O)Cn1ccc(Nc2ccccc2)cc1=O)B(O)O`
Out: false (0)

In: Check the results log: what was the call for `Cc1ccc(Cl)cc1-c1nc(N)nc(Nc2ccc(Br)cc2)n1` ?
Out: true (1)

In: Hi team, can someone confirm the assay call for `CC1(C)CC[C@]2(C(N)=O)CC[C@]3(C)C(=CC[C@@H]4[C@@]5(C)C/C(=C/c6cccnc6)C(=O)C(C)(C)[C@@H]5CC[C@]43C)[C@@H]2C1` ?
Out: false (0)

In: Hi, sorry to bother you, what did the test record for `COc1ccc2nc3ccccc3c(NCc3ccc(Cl)cc3)c2c1` ?
Out: false (0)

In: Would you mind telling me which call this test gave `C=CC(=O)N1C[C@H](COc2nc(Nc3cnn(C)c3)nc3[nH]cc(Cl)c23)[C@@H](OC)C1` ?
Out: false (0)

In: // param item: CCC(=O)OC1CCC2C3CCC(=O)OC3C(C)(CCC(=O)O)CC12C (configuration not stated) ; yields the recorded call
Out: false (0)

In: Status in this test for `ClCCn1cnc2c(SCc3ccccc3Cl)ncnc21` ?
Out: false (0)

In: Record lookup: outcome of this test for `Nn1c2c(c3ccccc3c1=O)C(=O)c1ccccc1-2` ?
Out: false (0)

In: In this assay, the call recorded for `O=S(=O)(Nc1ccc(Cl)cc1)c1ccc(-c2cnc(C3CC3)o2)cc1` was what?
Out: false (0)

In: Please share the test call associated with `O=C(N/N=C/c1c(Cl)cccc1Cl)c1cccnc1Nc1cccc(C(F)(F)F)c1` .
Out: false (0)

In: Hi, sorry to bother you, what did the test record for CC(=O)OC1Oc2ccccc2-c2oc(=O)c(-c3ccc(F)cc3)cc21 (configuration not stated) ?
Out: false (0)
